# assaySystem: mouse Estrogen Receptor alpha (Era), Esr1 (gene 13982) (UniProt P19785)
# Sequence (P19785 whole entry, looked up): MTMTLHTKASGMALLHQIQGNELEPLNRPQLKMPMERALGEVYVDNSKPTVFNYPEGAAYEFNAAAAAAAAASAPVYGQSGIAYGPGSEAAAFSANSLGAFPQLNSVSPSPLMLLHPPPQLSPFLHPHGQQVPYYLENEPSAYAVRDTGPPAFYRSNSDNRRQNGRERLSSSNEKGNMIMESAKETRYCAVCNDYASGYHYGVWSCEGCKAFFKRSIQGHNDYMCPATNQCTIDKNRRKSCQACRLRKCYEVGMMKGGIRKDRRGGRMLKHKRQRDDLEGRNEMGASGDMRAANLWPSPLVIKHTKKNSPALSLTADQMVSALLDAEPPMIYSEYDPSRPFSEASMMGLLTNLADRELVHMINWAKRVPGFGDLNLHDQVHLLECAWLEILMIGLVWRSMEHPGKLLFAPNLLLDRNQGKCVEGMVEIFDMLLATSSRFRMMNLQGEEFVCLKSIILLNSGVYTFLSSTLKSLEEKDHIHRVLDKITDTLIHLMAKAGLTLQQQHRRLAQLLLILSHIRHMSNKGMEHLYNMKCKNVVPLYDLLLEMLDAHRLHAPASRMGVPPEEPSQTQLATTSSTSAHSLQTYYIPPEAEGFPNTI
# method: NVS_NR_mERa: NovaScreen (NVS) Nuclear Receptor Binding Assay for mouse Estrogen Receptor alpha (Era) (AID 2283378);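 also: hit means loss of bound radioligand signal relative to DMSO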
Results filed as inconclusive are left out. Active and inactive are the calls of the source. The calls were made as follows: active = hit-call score of the fitted dose curve at least 0.9, where 1 is the maximum; inconclusive = response in the unintended direction; inactive = score below 0.9.
Possible outcomes: active, inactive

smilesstring=CCCCCCCCOC(=O)c1cc(O)c(O)c(O)c1 assaysystem="mouse Estrogen Receptor alpha (Era), Esr1 (gene 13982) (UniProt P19785)" labelvalue=active
smilesstring=CC(C)(C)c1cc(/C=C2\SC(N)=NC2=O)cc(C(C)(C)C)c1O assaysystem="mouse Estrogen Receptor alpha (Era), Esr1 (gene 13982) (UniProt P19785)" labelvalue=inactive
smilesstring=COc1cc(C(=O)NC2CCN(C)CC2)ccc1Nc1ncc2c(n1)N(C1CCCC1)CC(F)(F)C(=O)N2C assaysystem="mouse Estrogen Receptor alpha (Era), Esr1 (gene 13982) (UniProt P19785)" labelvalue=active
smilesstring=CCCOC(=O)c1cc(O)c(O)c(O)c1 assaysystem="mouse Estrogen Receptor alpha (Era), Esr1 (gene 13982) (UniProt P19785)" labelvalue=inactive
smilesstring=CN(C)C(=O)C1(N2CCCCC2)CCN(CC[C@@]2(c3ccc(Cl)c(Cl)c3)CN(C(=O)c3ccccc3)CCO2)CC1 assaysystem="mouse Estrogen Receptor alpha (Era), Esr1 (gene 13982) (UniProt P19785)" labelvalue=active
smilesstring=CN(C[C@@H](CC[N+]12CCC(C3CCCCC3)(CC1)CC2)c1ccc(Cl)c(Cl)c1)C(=O)c1cc(C(F)(F)F)cc(C(F)(F)F)c1 assaysystem="mouse Estrogen Receptor alpha (Era), Esr1 (gene 13982) (UniProt P19785)" labelvalue=inactive
smilesstring=CC(=O)N1CCN(c2ccc(OC[C@H]3CO[C@](Cn4ccnc4)(c4ccc(Cl)cc4Cl)O3)cc2)CC1 assaysystem="mouse Estrogen Receptor alpha (Era), Esr1 (gene 13982) (UniProt P19785)" labelvalue=inactive

----------
# method: ATG_TA_CIS: Attagene CIS-FACTORIAL HepG2 Assay for human TA Basal Promoter (AID 2282964)
# conditionNotes: HepG2 Attagene CIS-factorial TA basal promoter reporter; actives raise or lower the signal
The source made the active and inactive calls. Rule for the calls: active = hit-call score of the fitted dose curve at least 0.9, where 1 is the maximum; inactive = score below 0.9.
Outcomes: label 1 = active, label 0 = inactive

smilesstring=CC(C)(C)c1csc(-c2cc3cc(OCc4ccccc4CC(=O)O)ccc3o2)n1 labelvalue="label 1"
smilesstring=CC[C@H](NC(=O)c1cc(F)ccc1NS(=O)(=O)c1cccc2cccnc12)c1ccccc1 labelvalue="label 0"
smilesstring=CO[C@H]1/C=C/O[C@@]2(C)Oc3c(C)c(O)c4c(O)c(c(/C=N/N5CCN(C)CC5)c(O)c4c3C2=O)NC(=O)/C(C)=C\C=C\[C@H](C)[C@H](O)[C@@H](C)[C@@H](O)[C@@H](C)[C@H](OC(C)=O)[C@@H]1C labelvalue="label 0"
smilesstring=CCN(Cc1cccc(S(=O)(=O)O)c1)c1ccc(C(=C2C=CC(=[N+](CC)Cc3cccc(S(=O)(=O)O)c3)C=C2)c2ccccc2S(=O)(=O)[O-])cc1 labelvalue="label 0"
smilesstring=CC1=CC(=O)/C(=C(/C)O)C(=O)O1 labelvalue="label 0"
smilesstring=Cc1occc1C(=O)Nc1ccc(C(=O)N2CCC(F)(F)/C(=C\C(=O)N3CCC(N4CCCCC4)CC3)c3ccccc32)cc1 labelvalue="label 0"
smilesstring=CCCCCCCCOc1ccc(C(=O)c2ccccc2)c(O)c1 labelvalue="label 0"
smilesstring=Cc1c2ccccc2c(C)c2c1ccc1ccccc12 labelvalue="label 0"
